// note: IC50 values for Poly [ADP-ribose] polymerase tankyrase-1 (Homo sapiens, UniProt O95271) were reported in different studies
API: label(entry) gives yes (1) if the entry's IC50 is strictly smaller than 1000 nM; on equality or larger values it gives no (0).

Consider the following illustrative entries.
                                   compound  label_class
0    CNCc1ccc(-c2cc3cc(F)cc(C(N)=O)c3o2)cc1       no (0)
1  COC(C)(C)CNC(=O)c1nc[nH]c1C(=O)N[C@H]1CC[C@H](C(=O)Nc2cc(C(F)(F)F)ccc2Cl)CC1      yes (1)
2  O=C(CCc1ccccc1F)N(Cc1nc2c(c(=O)[nH]1)COCC2)Cc1cccs1      yes (1)
3  CNC(=O)c1nc[nH]c1C(=O)N[C@H]1CC[C@H](C(=O)Nc2ccc(F)cc2Br)CC1      yes (1)

Prompt: Find out if reported IC50 for O=C(N[C@H]1CC[C@H](C(=O)Nc2ccncc2Cl)CC1)c1cnc2cccnn12 is less than 1000 nM
Completion: yes (1)
